System: OVCAR-5 ovarian
Test: NCI-60 one-dose screen, 48 h (100 = growth as untreated, 0 = no growth, -100 = all killed)
Settings: 10 µM unless noted
Description: Growth inhibition of the OVCAR-5 human tumor cell line is measured as a screen for anti-cancer activity. Cells are grown in 96 well plates and exposed to the test compound for 48 hours. Compounds are tested at a single concentration, which is 10^-5 M for most compounds. The reported endpoint is percent growth (GI% or GIPRCNT), where numbers from 0 - 100% represent growth inhibition, and numbers from -100% - 0 represent cell death. For example, a value of 40 represents 60% growth inhibition. […]
About 83,000 compounds went through this panel and 20% of them were active in at least one assay; those are over-represented in the sample as a whole.
growth listing for selected compounds.
Report as a plain number; the unit % is understood.

Consider the following illustrative entries.
Task: Quick one: growth of "COc1ccc(-c2nnc(-c3ccc4c(c3)nc(-c3ccccc3)n4C3CCCCC3)o2)cc1" ?
Output: 95.4

Task: GET /values?readout=growth&item= CCOC(=O)C(O)C(O)(c1ccccc1)c1ccccc1 (centres undefined)
Output: 90.4

Task: Which value of growth has been reported for "Cl.Fc1c[c-]c(-c2ccccn2)c(F)c1.[Pt].c1ccc(P(c2ccccc2)C([PH+](c2ccccc2)c2ccccc2)[PH+](c2ccccc2)c2ccccc2)cc1" in the records?
Output: 22

Now consider a different compound.
Task: Name the reported growth value associated with the compound "O=C(CC12CC3CC(CC(C3)C1)C2)NCCOCCOCCOCCNC(=O)c1cc2c(o1)C(=O)c1ccccc1C2=O"
Output: -87.9

* * *

Tested on: NCI-H23 lung
Assay: NCI-60 one-dose screen, 48 h (100 = growth as untreated, 0 = no growth, -100 = all killed)
Conditions: 10 µM unless noted
Experimental: Growth inhibition of the NCI-H23 human Non-Small Cell Lung tumor cell line is measured as a screen for anti-cancer activity. Cells are grown in 96 well plates and exposed to the test compound for 48 hours. Compounds are tested at a single concentration, which is 10^-5 M for most compounds. The reported endpoint is percent growth (GI% or GIPRCNT), where numbers from 0 - 100% represent growth inhibition, and numbers from -100% - 0 represent cell death. […]
The panel holds about 83,000 compounds, 20% with a hit somewhere; the sample as a whole holds those more often.
QUANTITY KIND: growth (%)
Only the number, expressed in %, is required.

Task: Fill blank: measured growth of the compound O=C1CSC(c2ccccc2O)N1c1nnc(Cn2cnnc2)o1 (stereo unspecified) is ____.
Output: 77.3

Task: Report growth for CN(C)CCC(O)(Cc1ccccc1)c1ccccc1 (stereo unspecified) please.
Output: 100

Task: # input compound: "COc1cc2c(cc1OC)-c1ccc3cc4c(cc3c1N(CCN(C)C)C2)OCO4" ; wanted: its growth
Output: -8.26

Task: Consider the compound "CCN(CCO)CC(=O)c1cc(Cl)cc(Cl)c1Cl" and give its measured growth.
Output: 96.6

Task: Any idea what its growth is? The compound is "O=c1[nH]nc(-c2ccc(Cl)cc2)cc1Cc1ccccc1"
Output: 92.3

// moving on: another record for growth
Task: Field request: growth | item: "Cc1cc(-c2noc(C(F)(F)F)n2)ccc1N1CCN(c2cc(C(=O)N(C)C)no2)CC1"
Output: 55.6

* * *

Tested on: UACC-257 melanoma
Test: NCI-60 one-dose screen, 48 h
Details: 10 µM unless noted
About 83,000 compounds went through this panel and 20% of them were active in at least one assay; those are over-represented in the sample as a whole. The source made the active and inactive calls. The calls were made as follows: active = growth percent below 10; inactive = the rest.
Use one of these outcomes when replying: active, inactive

// known answers, use as guide
Task: Which outcome was assigned to "NC(N)=N/N=C/c1ccc(Br)cc1" in this test?
Output: inactive

Task: I'd appreciate the recorded outcome for "Cc1cnc(Nc2ccc(N3CCN(C)CC3)cc2)nc1Nc1ccc(Cl)c(NS(=O)(=O)C(C)(C)C)c1" from this test.
Output: active

Continuing:
Task: Each compound tested received a call. Report the one for "NC(=O)CC1(O)C=C(Br)C(=O)C(Br)=C1" .
Output: inactive

Task: For this compound, state the assay outcome: CCOC(=O)c1nnn(C(Cc2ccccc2Cl)C(=O)OCC)c1C (stereo unspecified)
Output: inactive

Task: Returns: the outcome recorded for "CC(=O)OCCc1ccccc1" in this assay.
Output: inactive

Task: Called result for "Clc1ccc(-c2nnc(Cn3ccnc3)o2)cc1"
Output: inactive
